Listed here: items and their measured % Inhibition at 1 μM at Melanocortin Receptor 1.
TARGET_ENTITY: MC1-R (Mus musculus)
Construct: membranes prepared from hMC3-R, hMC4-R, hMC5-R, and B-16 mouse melanoma cells (containing MC1-R); endogenous in cells; host or cells: B-16 mouse melanoma cells (membranes)
Sequence (Q01727 whole entry): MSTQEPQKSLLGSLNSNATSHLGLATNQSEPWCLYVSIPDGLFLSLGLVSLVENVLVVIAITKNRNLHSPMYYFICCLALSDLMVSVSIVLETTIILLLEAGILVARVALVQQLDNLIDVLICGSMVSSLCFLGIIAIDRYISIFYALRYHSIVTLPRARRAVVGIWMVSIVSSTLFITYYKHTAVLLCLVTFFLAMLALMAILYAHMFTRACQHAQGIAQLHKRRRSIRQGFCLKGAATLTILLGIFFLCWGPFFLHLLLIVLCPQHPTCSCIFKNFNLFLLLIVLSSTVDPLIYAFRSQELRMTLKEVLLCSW
MEASUREMENT_PROTOCOL: competitive inhibition binding assay, 125I-NDP-alpha-MSH, B-16 mouse melanoma cell membranes
PROTOCOL_CONDITIONS: 1 μM test peptide; 0.4 nM 125I-NDP-alpha-MSH; B-16 mouse melanoma cell membranes
Square brackets hold non-standard residues; d marks the D form. Nle = CCCC[C@H](N)C(=O)O
QUANTITY: % Inhibition at 1 μM at Melanocortin Receptor 1 (%)

{"columns": ["SUBSTANCE", "TARGET_ENTITY", "TEST_VALUE"],
 "data": [
  ["Ac-Ser-Tyr-D-Cys-Ser-Nle-Glu-His-Phe-Arg-Trp-Gly-Lys-Pro-Val-NH2 (Ac-SY[dC]S[Nle]EHFRWGKPV-NH2; not fully specified (bridges); printed as Ac-Ser-Tyr-D-Cys-Ser-Nle-Glu-His-Phe-Arg-Trp-Gly-Lys-Pro-Val-NH2; numbers in words are those of the source; also: oxorhenium(V) N3S1 chelate (Re(V)=O)) [2-12]", "MC1-R (Mus musculus)", 97],
  ["Ac-Ser-Tyr-Ser-D-Cys-Nle-Glu-His-Phe-Arg-Trp-Gly-Lys-Pro-Val-NH2 (Ac-SYS[dC][Nle]EHFRWGKPV-NH2; not fully specified (bridges); printed as Ac-Ser-Tyr-Ser-D-Cys-Nle-Glu-His-Phe-Arg-Trp-Gly-Lys-Pro-Val-NH2; numbers in words are those of the source; also: oxorhenium(V) N3S1 chelate (Re(V)=O)) [2-11]", "MC1-R (Mus musculus)", 95],
  ["Ac-Ser-Tyr-Ser-Nle-Glu-D-Cys-His-Phe-Arg-Trp-Gly-Lys-Pro-Val-NH2 (Ac-SYS[Nle]E[dC]HFRWGKPV-NH2; numbers in words are those of the source; also: oxorhenium(V) N3S1 chelate via Cys (Re(V)=O)) [2-9]", "MC1-R (Mus musculus)", 92]
]}

----------
Test system: bombesin receptor
MEASUREMENT_PROTOCOL: competitive binding assay, 125I-Bombesin, rat brain membranes
PROTOCOL_CONDITIONS: inhibition of 0.01 nM 125I-Bombesin binding; rat brain membranes; test concentration not given
Square brackets hold non-standard residues; d marks the D form. Ends that are not written are not given here. pGlu = O=C1CC[C@@H](C(=O)O)N1; Nle = CCCC[C@H](N)C(=O)O
% Inhibition values by entry
QUANTITY: % Inhibition

{"columns": ["SUBSTANCE", "TEST_VALUE"],
 "data": [
  ["Pyr-Gln-Arg-Leu-Gly-Asn-Gln-Trp-Cys-Val-Gly-His-Leu-Nle-NH2 (QRLGNQWCVGHL; N-terminal pyroglutamate; C-terminal Nle-amide; printed: Gln-Arg-Leu-Gly-Asn-Gln-Trp-Cys-Val-Gly-His-Leu-) [7-6]", "91%"],
  ["Pyr-Gln-Arg-Leu-Gly-Asn-Gln-Trp-Ala-Val-Cys-His-Leu-Nle-NH2 (QRLGNQWAVCHL; N-terminal pyroglutamate; C-terminal Nle-amide; printed: Gln-Arg-Leu-Gly-Asn-Gln-Trp-Ala-Val-Cys-His-Leu-) [7-4]", "81%"],
  ["Pyr-Gln-Arg-Leu-Gly-Asn-Gln-Trp-Ala-Val-Gly-His-Leu-Nle-Cys-NH2 ([pGlu]QRLGNQWAVGHL[Nle]C-NH2; numbers in words are those of the source; also: rhenium complex (oxorhenium(V) N3S1 tetradentate chelate via Re=O core)) [6-1]", "82%"],
  ["Ala-Val-Cys-His-Leu-NH2 (AVCHL-NH2; not fully specified (bridges); printed as Ala-Val-Cys-His-Leu-NH2; also: oxorhenium(V) N3S1 chelate (Re(V)=O)) [11-9]", "7%"]
]}
